Provide the recorded pIC50 for the entries that follow.
Note on pIC50: it is the negative log10 of concentration, concentration in mol/L.

Recall the recorded pIC50 for `O=C(CN1CCCCC1)c1ccc2c(c1)OCO2` with Amine oxidase [flavin-containing] B (Homo sapiens) and state it.
Sequence (P27338 whole entry): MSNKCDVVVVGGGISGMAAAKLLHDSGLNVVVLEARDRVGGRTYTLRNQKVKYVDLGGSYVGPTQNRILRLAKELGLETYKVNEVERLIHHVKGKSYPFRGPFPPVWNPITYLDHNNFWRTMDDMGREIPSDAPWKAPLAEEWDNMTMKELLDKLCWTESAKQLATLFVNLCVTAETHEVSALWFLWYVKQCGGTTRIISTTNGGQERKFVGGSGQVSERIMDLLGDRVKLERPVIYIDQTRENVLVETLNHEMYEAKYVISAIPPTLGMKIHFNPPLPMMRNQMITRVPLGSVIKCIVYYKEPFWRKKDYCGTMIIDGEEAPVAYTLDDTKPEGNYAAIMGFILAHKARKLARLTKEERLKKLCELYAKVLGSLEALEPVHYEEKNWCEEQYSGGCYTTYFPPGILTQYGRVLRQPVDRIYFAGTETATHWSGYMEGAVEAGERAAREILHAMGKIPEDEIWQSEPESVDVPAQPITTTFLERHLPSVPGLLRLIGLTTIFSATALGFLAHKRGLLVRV
5.50

Recall the recorded pIC50 for `CC1CCN(C(=O)/C=C/c2ccc3c(c2)OCO3)CC1` with Amine oxidase [flavin-containing] B (Homo sapiens) and state it.
6.30
